The values you see were collected from patent US20130172360A1.

Give measured IC50 for each item. Keep answers brief.
Target: ALK (Homo sapiens)
Sequence (Q9UM73 19-1620): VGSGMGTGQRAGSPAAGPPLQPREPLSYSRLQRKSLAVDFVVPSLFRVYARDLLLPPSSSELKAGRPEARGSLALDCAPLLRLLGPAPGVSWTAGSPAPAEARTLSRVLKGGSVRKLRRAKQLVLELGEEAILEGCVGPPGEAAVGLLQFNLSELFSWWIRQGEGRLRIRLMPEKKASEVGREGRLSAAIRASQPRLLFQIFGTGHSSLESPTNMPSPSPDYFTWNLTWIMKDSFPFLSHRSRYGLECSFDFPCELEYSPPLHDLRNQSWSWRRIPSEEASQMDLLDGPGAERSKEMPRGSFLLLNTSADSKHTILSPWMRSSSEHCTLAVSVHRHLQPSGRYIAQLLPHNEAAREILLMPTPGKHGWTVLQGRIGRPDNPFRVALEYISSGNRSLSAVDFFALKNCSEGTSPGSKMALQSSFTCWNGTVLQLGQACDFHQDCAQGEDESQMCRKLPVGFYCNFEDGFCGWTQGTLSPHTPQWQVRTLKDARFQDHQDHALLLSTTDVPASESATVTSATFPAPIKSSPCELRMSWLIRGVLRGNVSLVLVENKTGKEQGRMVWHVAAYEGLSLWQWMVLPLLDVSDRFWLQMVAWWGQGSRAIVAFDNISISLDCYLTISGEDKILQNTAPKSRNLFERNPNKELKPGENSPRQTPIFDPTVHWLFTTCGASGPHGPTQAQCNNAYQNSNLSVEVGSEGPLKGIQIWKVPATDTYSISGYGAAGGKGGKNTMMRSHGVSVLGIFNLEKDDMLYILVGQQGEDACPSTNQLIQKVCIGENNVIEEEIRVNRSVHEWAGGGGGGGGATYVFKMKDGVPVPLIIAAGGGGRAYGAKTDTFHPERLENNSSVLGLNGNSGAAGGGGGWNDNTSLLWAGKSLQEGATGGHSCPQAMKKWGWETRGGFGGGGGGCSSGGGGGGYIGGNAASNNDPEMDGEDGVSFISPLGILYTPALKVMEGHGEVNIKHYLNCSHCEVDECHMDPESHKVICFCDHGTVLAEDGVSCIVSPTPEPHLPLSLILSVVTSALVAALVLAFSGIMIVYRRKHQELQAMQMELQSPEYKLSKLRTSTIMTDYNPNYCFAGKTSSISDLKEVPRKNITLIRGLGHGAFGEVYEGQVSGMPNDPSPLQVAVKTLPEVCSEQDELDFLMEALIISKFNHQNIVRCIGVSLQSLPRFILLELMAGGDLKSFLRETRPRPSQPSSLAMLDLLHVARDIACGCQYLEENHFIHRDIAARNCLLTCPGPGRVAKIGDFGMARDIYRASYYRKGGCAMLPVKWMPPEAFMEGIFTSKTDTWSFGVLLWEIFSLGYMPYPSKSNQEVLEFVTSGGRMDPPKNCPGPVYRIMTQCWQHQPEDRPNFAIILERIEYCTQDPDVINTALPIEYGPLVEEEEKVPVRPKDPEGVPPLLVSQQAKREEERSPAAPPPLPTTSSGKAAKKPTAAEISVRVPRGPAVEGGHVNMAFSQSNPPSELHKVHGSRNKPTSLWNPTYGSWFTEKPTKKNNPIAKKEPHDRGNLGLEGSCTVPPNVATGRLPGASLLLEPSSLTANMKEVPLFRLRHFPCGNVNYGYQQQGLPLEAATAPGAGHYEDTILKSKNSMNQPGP
Experiment: Test for measuring inhibition of ALK kinase (GST-PLCγ1 substrate, anti-phosphotyrosine ELISA, luminescence)
Type: biochemical
Details: 250 μM ATP, 30 minutes at 30° C.; read-out: Enzymatic inhibition of ALK (IC50)
Give bare numbers, in nM.

Please review the following examples before continuing.
> print(dat)
                    structure.smiles.string  meas.value
1  CN1CCN(c2ccc(C(=O)Nc3n[nH]c4ncc(Cc5cc(F)cc(F)c5)cc34)c(NC3CCOCC3)c2)CC1           1
2  CN1CCN(c2ccc(CNc3n[nH]c4ncc(Sc5cc(F)cc(F)c5)cc34)cc2)CC1          36
3  CN1CCN(c2ccc(C(=O)Nc3n[nH]c4ncc(Sc5ccccc5C(N)=O)cc34)c(NC3CCOCC3)c2)CC1          20
4  CN1CCN(c2ccc(C(=O)Nc3n[nH]c4ncc(CCc5cc(F)cc(F)c5)cc34)c(NC3CCOCC3)c2)CC1          17
5  CN1CCN(c2ccc(C(=O)Nc3n[nH]c4ncc(Sc5cc(F)cc(F)c5)cc34)c(NC3CCOCC3)c2)CC1           1

What does the data say about its IC50? Entry: COc1nc2[nH]nc(NC(=O)c3ccc(N4CCN(C)CC4)cc3NC3CCOCC3)c2cc1Sc1cc(F)cc(F)c1 66
